Each entry below lists one item and its recorded AP-DAA IC50 value.
EXPERIMENTAL_TARGET: AP C3-convertase (C3bBb) (UniProt P01024)
Sequence (P01024 23-667 limits assumed, chain 1 of 3): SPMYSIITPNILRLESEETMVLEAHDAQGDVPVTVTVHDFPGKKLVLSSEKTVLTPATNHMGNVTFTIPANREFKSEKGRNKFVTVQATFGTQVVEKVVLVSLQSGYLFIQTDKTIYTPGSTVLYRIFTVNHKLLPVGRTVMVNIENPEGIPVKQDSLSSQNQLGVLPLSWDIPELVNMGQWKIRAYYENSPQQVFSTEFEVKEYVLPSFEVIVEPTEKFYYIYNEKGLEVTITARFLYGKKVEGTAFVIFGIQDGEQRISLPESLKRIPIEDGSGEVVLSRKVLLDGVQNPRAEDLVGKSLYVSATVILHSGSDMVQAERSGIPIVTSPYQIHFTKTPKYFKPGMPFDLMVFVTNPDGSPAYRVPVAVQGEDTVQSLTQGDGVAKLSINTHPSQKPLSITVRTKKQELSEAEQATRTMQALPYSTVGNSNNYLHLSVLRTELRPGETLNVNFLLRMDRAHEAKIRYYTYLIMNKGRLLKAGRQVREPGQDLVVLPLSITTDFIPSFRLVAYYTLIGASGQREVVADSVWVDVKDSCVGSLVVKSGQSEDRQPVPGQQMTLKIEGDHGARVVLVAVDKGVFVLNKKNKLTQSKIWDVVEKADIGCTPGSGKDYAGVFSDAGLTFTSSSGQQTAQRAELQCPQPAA
Sequence (P01024 749-1663 limits assumed, chain 2 of 3): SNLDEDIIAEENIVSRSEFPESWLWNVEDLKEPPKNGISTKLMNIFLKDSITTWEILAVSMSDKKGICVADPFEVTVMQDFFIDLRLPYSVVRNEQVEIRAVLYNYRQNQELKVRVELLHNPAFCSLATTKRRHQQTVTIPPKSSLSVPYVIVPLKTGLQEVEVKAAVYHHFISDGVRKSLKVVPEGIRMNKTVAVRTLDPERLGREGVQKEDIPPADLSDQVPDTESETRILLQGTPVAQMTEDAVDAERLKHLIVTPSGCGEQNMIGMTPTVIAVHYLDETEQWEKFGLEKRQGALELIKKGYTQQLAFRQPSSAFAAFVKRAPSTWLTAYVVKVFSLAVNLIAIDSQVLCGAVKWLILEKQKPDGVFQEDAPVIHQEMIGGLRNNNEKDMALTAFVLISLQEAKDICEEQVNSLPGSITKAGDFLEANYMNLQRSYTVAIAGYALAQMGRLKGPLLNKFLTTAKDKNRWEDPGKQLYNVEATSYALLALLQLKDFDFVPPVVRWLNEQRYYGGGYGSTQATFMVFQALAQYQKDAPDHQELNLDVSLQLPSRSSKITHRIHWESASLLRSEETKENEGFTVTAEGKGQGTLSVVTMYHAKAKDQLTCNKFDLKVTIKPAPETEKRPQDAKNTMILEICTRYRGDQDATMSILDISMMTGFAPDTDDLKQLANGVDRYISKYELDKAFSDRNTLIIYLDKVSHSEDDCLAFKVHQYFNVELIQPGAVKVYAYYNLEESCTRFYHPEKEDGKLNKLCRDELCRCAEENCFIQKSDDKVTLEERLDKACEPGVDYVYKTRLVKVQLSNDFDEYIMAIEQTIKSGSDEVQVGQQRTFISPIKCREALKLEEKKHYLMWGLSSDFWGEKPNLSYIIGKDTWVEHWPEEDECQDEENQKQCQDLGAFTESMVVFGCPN
Sequence (P00751 260-764 limits assumed, chain 3 of 3, further chain): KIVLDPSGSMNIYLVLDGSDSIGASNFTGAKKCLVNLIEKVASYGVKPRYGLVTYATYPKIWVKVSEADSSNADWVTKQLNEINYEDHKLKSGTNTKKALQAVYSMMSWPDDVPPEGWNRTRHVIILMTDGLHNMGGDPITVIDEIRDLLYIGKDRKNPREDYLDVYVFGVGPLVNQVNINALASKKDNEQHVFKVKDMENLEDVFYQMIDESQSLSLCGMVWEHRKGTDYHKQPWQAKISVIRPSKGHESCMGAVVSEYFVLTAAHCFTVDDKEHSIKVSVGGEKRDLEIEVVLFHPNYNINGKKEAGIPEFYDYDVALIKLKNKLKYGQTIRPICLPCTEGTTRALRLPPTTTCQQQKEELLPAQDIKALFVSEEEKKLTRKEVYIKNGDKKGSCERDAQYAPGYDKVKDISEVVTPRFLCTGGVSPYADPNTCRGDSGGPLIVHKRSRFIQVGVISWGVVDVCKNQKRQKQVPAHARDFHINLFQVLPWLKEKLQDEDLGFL
PROTOCOL_DETAILS: cell-based or functional assay
Lab note: write values as number then unit, every time.

Record request: AP-DAA IC50 value, item D2D3M3M4 (P216K) (protein) CEVPTRLNSASLKQPYITQNYFPVGTVVEYECRPGYRREPSLSPKLTCLQNLKWSTAVEFCKKKSCPNPGEIRNGQIDVPGGILFGATISFSCNTGYKLFGSTSSFCLISGSSVQWSDKLPECREIYCTPPPKIKNGKHTFSEVEVFEYLDAVTYSCDPAPGPDPFSLIGESTIYCGDNSVWSRAAPECKVVKCRFPVVENGKQISGFGKKFYYKATVMFECDKGFYLDGSDTIVCDSNSTWDPPVPKCLKVL 3.4 nM

Would you kindly share the measured AP-DAA IC50 for D2D3M3M4 (F197I) (protein) CEVPTRLNSASLKQPYITQNYFPVGTVVEYECRPGYRREPSLSPKLTCLQNLKWSTAVEFCKKKSCPNPGEIRNGQIDVPGGILFGATISFSCNTGYKLIGSTSSFCLISGSSVQWSDPLPECREIYCTPPPKIKNGKHTFSEVEVFEYLDAVTYSCDPAPGPDPFSLIGESTIYCGDNSVWSRAAPECKVVKCRFPVVENGKQISGFGKKFYYKATVMFECDKGFYLDGSDTIVCDSNSTWDPPVPKCLKVL ? 4.4 nM
